Answer each item with its documented growth.
System: KM12 colon
Experiment: NCI-60 one-dose screen, 48 h (100 = growth as untreated, 0 = no growth, -100 = all killed)
Conditions: 10 µM unless noted
This is part of a sample that, as a whole, favours compounds with a hit. Of some 83,000 tested, about 20% had one in any assay.
Answers are plain numbers, in %.

Would you please look over these solved cases?
O=C(CCc1ccc(O)cc1)N/N=C/c1cc(Br)ccc1O ... 28.1
CC1=NN(c2ccccc2)C(=O)C1C(=O)c1ccccc1 (configuration not stated) ... 93.2

// batch mode: one growth value per listed entry
1. S=C1SCN(Cc2ccccc2)CN1Cc1ccccc1
2. Oc1ccccc1C=NCC1CCC(CN=Cc2ccccc2O)CC1 (configuration not stated)
3. c1ccc(N(c2ccccc2)c2ccccc2)cc1
4. O=C=NC(c1ccccc1)(c1ccccc1)c1ccccc1
5. N#C/C(=C/c1c(O)ccc2ccccc12)C(N)=O

Resp:
[5.8, 107, 105, 103, 93.8]

###

Tested on: KM12 colon
Test: NCI-60 one-dose screen, 48 h (100 = growth as untreated, 0 = no growth, -100 = all killed)
Settings: 10 µM unless noted
This is part of a sample that, as a whole, favours compounds with a hit. Of some 83,000 tested, about 20% had one in any assay.
ENDPOINT_LABEL: growth (%)
Numbers only, in %.

Would you please look over these solved cases?
Nc1ccccc1SC1CC(=O)N(c2cccc3ccccc23)C1=O (stereo not drawn) ... 101
Cc1nnc(NC/C=C/c2ccccc2)s1 ... 94.4

// batch mode: one growth value per listed entry
1. CCCCCCCCCCCCOc1ccccc1C=O
2. COc1ccc(NC(=S)Nc2ccccn2)cc1
3. CCN(CC)C(=O)c1cccnc1
4. Nc1n[nH]c(=S)n1-c1ccc(Cl)cc1
5. O=C(O)CSCc1nc2ccccc2[nH]1
6. CC(=O)C(/C=N/C(N)=O)=C(/C)O
7. CC(/C=N/N1C(=O)c2ccccc2C1=O)c1ccccc1 (stereo not drawn)

Resp:
102
91
104
103
111
111
113

###

System: NCI/ADR-RES ovarian
Assay: NCI-60 one-dose screen, 48 h (100 = growth as untreated, 0 = no growth, -100 = all killed)
Settings: 10 µM
This is part of a sample that, as a whole, favours compounds with a hit. Of some 83,000 tested, about 20% had one in any assay. Active and inactive are the calls of the source. Rule for the calls: active = growth percent below 10; inactive = the rest.
ENDPOINT_LABEL: growth

Would you please look over these solved cases?
CCCCCCCCCCCCCCCc1ccc(Cl)c(O)c1Cl (tested in a mixture with another compound) ... 96.5% (inactive)
CC#C[C@]1(O)CC[C@H]2[C@@H]3CCC4=CC(=O)CCC4=C3[C@@H](c3ccc4c(c3)OCO4)C[C@@]21C ... 76.7% (inactive)
Cc1[nH]c(-c2nc3ccccc3[nH]2)c(C)c1C(=O)NC(C)C1CCCCC1 (stereo not given) ... 85.5% (inactive)
CC(C)(C)c1cc(NC(=O)Cc2ccc(-c3cnc4cc(-c5cnn(CCN6CCOCC6)c5)ccc4n3)cc2)no1 ... 12.8% (inactive)

Req: // query growth value for entry CNC(=O)c1cc(Oc2ccc(CC(=O)Nc3cc(C(C)(C)C)nn3C)cc2)ccn1
Resp: 76% (inactive)

###

Test system: RXF 393 renal
Test: NCI-60 one-dose screen, 48 h
Conditions: 10 µM unless noted
Procedure: Cells are grown in 96 well plates and exposed to the test compound for 48 hours. Compounds are tested at a single concentration, which is 10^-5 M for most compounds. The reported endpoint is percent growth (GI% or GIPRCNT), where numbers from 0 - 100% represent growth inhibition, and numbers from -100% - 0 represent cell death. For example, a value of 40 represents 60% growth inhibition. A value of 0 means no net growth occurred over the course of the experiment. […]
The panel holds about 83,000 compounds, 20% with a hit somewhere; the sample as a whole holds those more often. Calls of active or inactive are those of the source. The calls were made as follows: active = growth percent below 10; inactive = the rest.
Respond only with the outcome that fits, drawn from class 1 = active, class 0 = inactive

Req: Which outcome did this test record for the compound CCN(CC)CCC(CNc1c2ccc([N+](=O)[O-])cc2nc2cc(OC)c(OC)cc12)c1ccccc1 (stereo unspecified) ?
Resp: class 1

###

Tested on: T-47D breast
Experiment: NCI-60 one-dose screen, 48 h (100 = growth as untreated, 0 = no growth, -100 = all killed)
Conditions: 10 µM unless noted
This is part of a sample that, as a whole, favours compounds with a hit. Of some 83,000 tested, about 20% had one in any assay.
Answer each item with its documented growth.
Give bare numbers, in %.

Would you please look over these solved cases?
Cc1ccc2nc3c(nc2c1)-c1cccc2cccc-3c12 ... 87.6
Nc1ccc2[nH]c(-c3ccccc3)cc(=O)c2c1 ... 78
O=[N+]([O-])c1ccc2nc3c4ccccc4c4ccccc4c3nc2c1 ... 67.9
Cc1c(Cl)cccc1NCN1C(=O)c2ccccc2C1=O ... 94.4
COc1ccc(NC(=S)Nc2ccccn2)cc1 ... 101
O=C(CCc1ccc(O)cc1)N/N=C/c1cc(Br)ccc1O ... 33.3

// batch mode: one growth value per listed entry
1. Nc1n[nH]c(=S)n1-c1ccc(Cl)cc1
2. O=C1c2c(O)cc(O)cc2OC(c2ccc(O)c(O)c2)C1O (configuration not stated)
3. CC(=O)Nc1cccc2c1CCCC2
4. O=[N+]([O-])c1ccc(-n2[nH]nnc2=S)cc1
5. O=C1c2ccccc2C(=O)N1/N=C/c1ccc2c(c1)OCO2
6. O=C(c1ccc(Cl)cc1)C(NCCO)c1ccc(Cl)cc1 (configuration not stated)

Resp:
1: 97.6; 2: 103; 3: 92.7; 4: 103; 5: 99.9; 6: 85.4

###

Test system: MOLT-4 leukemia
Test: NCI-60 one-dose screen, 48 h (100 = growth as untreated, 0 = no growth, -100 = all killed)
Conditions: 10 µM unless noted
This is part of a sample that, as a whole, favours compounds with a hit. Of some 83,000 tested, about 20% had one in any assay.
Answer each item with its documented growth.
One number for each entry, in %.

Would you please look over these solved cases?
N=C1N=C(N)CS1 ... 99.1
COc1ccc2ccccc2c1/C=N/N1CCCCC1 ... 88.3
C[N+](C)(C)CN1C(=O)c2ccccc2C1=O ... 94.2
NC(=S)NS(=O)(=O)c1ccc(N)cc1 ... 101
Nc1nc2ncc(CNc3ccc(C(=O)N[C@@H](CCc4nn[nH]n4)C(=O)O)cc3)nc2c(=O)[nH]1 ... 95.6
Cc1c(Cl)cccc1NCN1C(=O)c2ccccc2C1=O ... 116

// batch mode: one growth value per listed entry
1. O=[N+]([O-])c1ccc(-n2[nH]nnc2=S)cc1
2. CN(Cc1ccccc1)Cc1ccccc1

Resp:
1. 102
2. 122

###

Answer each item with its documented growth.
Tested on: OVCAR-4 ovarian
Assay: NCI-60 one-dose screen, 48 h (100 = growth as untreated, 0 = no growth, -100 = all killed)
Details: 10 µM unless noted
Experimental: Growth inhibition of the OVCAR-4 human tumor cell line is measured as a screen for anti-cancer activity. Cells are grown in 96 well plates and exposed to the test compound for 48 hours. Compounds are tested at a single concentration, which is 10^-5 M for most compounds. The reported endpoint is percent growth (GI% or GIPRCNT), where numbers from 0 - 100% represent growth inhibition, and numbers from -100% - 0 represent cell death. For example, a value of 40 represents 60% growth inhibition. […]
About 83,000 compounds went through this panel and 20% of them were active in at least one assay; those are over-represented in the sample as a whole.
Numbers only, in %.

COc1ccc(NC(=S)Nc2ccccn2)cc1 ... 110
CC(O)Cn1cnc2c1c(=O)n(C)c(=O)n2C (configuration not stated) ... 96.5
Cc1ccc2nc3c(nc2c1)-c1cccc2cccc-3c12 ... 92

// batch mode: one growth value per listed entry
1. COc1cc(C(=O)N/N=C/c2ccc(N(C)C)cc2)cc(OC)c1OC
2. OCc1ccccn1
3. O=C1OC(Oc2ccc(Br)cc2)(c2ccccc2)c2ccccc21 (configuration not stated)
4. CCN(CC)C(=O)c1cccnc1

Resp:
[61.7, 113, 92.1, 112]

###

Tested on: SNB-75 CNS
Experiment: NCI-60 one-dose screen, 48 h (100 = growth as untreated, 0 = no growth, -100 = all killed)
Conditions: 10 µM unless noted
This is part of a sample that, as a whole, favours compounds with a hit. Of some 83,000 tested, about 20% had one in any assay.
Answer each item with its documented growth.
Give bare numbers, in %.

Would you please look over these solved cases?
O=[N+]([O-])c1ccc2nc3c4ccccc4c4ccccc4c3nc2c1 ... 74.4
CC1=C(/C=C/C(C)=C/C=C/C(C)=C/C(=O)Nc2ccc(O)cc2)C(C)(C)CCC1 ... 57.6
Nc1ccc2[nH]c(-c3ccccc3)cc(=O)c2c1 ... 82.4

// batch mode: one growth value per listed entry
1. Cc1n[nH]c(=O)n(/N=C\c2c[nH]c3ccccc23)c1=O
2. CC(/C=N/N1C(=O)c2ccccc2C1=O)c1ccccc1 (stereo unspecified)
3. CCOc1ccc2nc3cc(N)ccc3c(N)c2c1

Resp:
1: 84; 2: 83; 3: 47.6

// batch mode: one growth value per listed entry
1. C1CCCCNCCC1
2. Cc1ccc2nc3c(nc2c1)-c1cccc2cccc-3c12
3. CC1(C)[C@@H](OC(=O)CCC(=O)O)CC[C@]2(C)[C@H]3C(=O)C=C4[C@@H]5C[C@@](C)(C(=O)O)CC[C@]5(C)CC[C@@]4(C)[C@]3(C)CC[C@@H]12
4. O=C(CN1CCN(c2cc3c(cc2F)c(=O)c(C(=O)O)cn3C2CC2)CC1)Nc1ccc(Cl)cc1
5. C[N+](C)(C)CN1C(=O)c2ccccc2C1=O
6. Cc1ccc(S(=O)(=O)NCN2C(=O)c3ccccc3C2=O)cc1
7. Oc1ccccc1C=NCC1CCC(CN=Cc2ccccc2O)CC1 (stereo unspecified)

Resp:
99.5
94.9
-68.7
79.7
77.5
96.9
101

// batch mode: one growth value per listed entry
1. CCCCCCCCCCCCOc1ccccc1C=O
2. Cc1ccc(-c2noc(C)n2)cc1
3. CNc1ccc2nc3ccc(=[N+](C)C)cc-3sc2c1

Resp:
[80.6, 85.9, -53.5]

All values here come from PubChem BioAssay (NCI).
